study.target: SARS-CoV-2 receptor-binding domain (amino acids 330-532), prototypical Wuhan/Victoria (SARS-CoV-2 (Wuhan/Victoria), UniProt P0DTC2 330-532)
measurement.protocol: SPR, RBD binding kinetics
outcome.measure: Kd (nM)
Expressed in nM, but write only the number.

**Query** Kd lookup needed for C1-SUMO-H11-H4-Fc (Fc fusion, also called C1-GSGSGS-SUMO-GSGSGS-H11-H4) QVQLVESGGGLVQPGGSLRLSCAASGFTNDFYSIAWFRQAPGKEREGVSWLSVSDNTPTYVDSVKDRFTISRHNANNTVYLQMNMLKPEDTAIYYCAAGRFAGRDTWPSSYDYWGQGTQVTVSSGSGSGSDSEVNQEAKPEVKPEVKPETHINLKVSDGSSEIFFKIKKTTPLRRLMEAFAKRQGKEMDSLRFLYDGIRIQADQTPEDLDMEDNDIIEAHREQIGSGSGSQVQLVESGGGLMQAGGSLRLSCAVSGRTFSTAAMGWFRQAPGKEREFVAAIRWSGGSAYYADSVKGRFTISRDKAKNTVYLQMNSLKYEDTAVYYCAQTHYVSYLLSDYATWPYDYWGQGTQVTVSS , thanks.
**Result** 0.013
